Parameter: pIC50. Scope: all listed entries.
targetUnderTest: Exportin-1 (Homo sapiens, UniProt O14980)
Sequence (O14980 whole entry, the tested form may be a part): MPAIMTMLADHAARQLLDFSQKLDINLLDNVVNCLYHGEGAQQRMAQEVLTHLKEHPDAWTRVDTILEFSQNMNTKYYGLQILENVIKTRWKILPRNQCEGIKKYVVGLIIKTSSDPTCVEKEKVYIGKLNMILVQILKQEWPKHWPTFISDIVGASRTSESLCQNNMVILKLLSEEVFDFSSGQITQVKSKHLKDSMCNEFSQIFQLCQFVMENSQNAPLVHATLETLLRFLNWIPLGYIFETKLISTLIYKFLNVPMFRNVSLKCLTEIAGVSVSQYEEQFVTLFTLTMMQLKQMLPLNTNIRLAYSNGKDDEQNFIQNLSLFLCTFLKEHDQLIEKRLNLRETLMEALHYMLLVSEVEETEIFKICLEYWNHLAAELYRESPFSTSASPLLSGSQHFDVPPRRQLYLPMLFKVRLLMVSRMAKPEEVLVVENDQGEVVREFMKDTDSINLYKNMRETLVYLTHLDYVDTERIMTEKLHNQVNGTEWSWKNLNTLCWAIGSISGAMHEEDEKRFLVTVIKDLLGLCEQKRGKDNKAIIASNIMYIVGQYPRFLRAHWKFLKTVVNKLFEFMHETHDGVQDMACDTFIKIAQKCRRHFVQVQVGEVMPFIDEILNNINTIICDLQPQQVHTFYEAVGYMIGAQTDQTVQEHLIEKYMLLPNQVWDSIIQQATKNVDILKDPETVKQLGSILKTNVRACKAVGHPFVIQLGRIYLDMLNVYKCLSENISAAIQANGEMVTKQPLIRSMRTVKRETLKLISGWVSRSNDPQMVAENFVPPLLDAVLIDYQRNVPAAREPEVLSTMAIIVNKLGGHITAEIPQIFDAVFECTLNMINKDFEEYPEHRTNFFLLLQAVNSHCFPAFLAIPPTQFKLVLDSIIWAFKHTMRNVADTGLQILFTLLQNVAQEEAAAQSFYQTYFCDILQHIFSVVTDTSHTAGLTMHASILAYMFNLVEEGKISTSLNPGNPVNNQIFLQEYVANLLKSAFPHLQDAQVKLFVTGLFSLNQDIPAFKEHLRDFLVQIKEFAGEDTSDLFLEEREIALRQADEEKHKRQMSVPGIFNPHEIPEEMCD
assayExplanation: Inhibition of Crm1 in human U2OS cells expressing GFP-fused HIV1 Rev assessed as decrease in nuclear export of GFP-fused HIV1 Rev after 1 hr by Hoechst 33258 staining-based assay
pIC50: −log10 of the molar value.

These solved cases illustrate the format of a correct answer.
In [3]: df
Out[3]:
                                entrysmiles  parametermeasured           val
0  CNc1cc(Cl)cc(-c2ncn(/C=C\C(=O)OC(C)C)n2)c1              pIC50        ≥ 6.00
1     CC(C)OC(=O)/C=C\n1cnc(-c2csc(Br)n2)n1              pIC50  5.00 to 6.00
2   O=C(/C=C\n1cnc(-c2cccc(Cl)c2)n1)OC1CNC1              pIC50        ≥ 6.00
3     CCOC(=O)/C=C\n1cnc(-c2cc(F)cc(F)c2)n1              pIC50  5.00 to 6.00
4  CC(C)(C)OC(=O)Nc1ccc(NC(=O)/C=C/n2cnc(-c3cccc(Cl)c3)n2)cc1              pIC50        ≤ 5.00

INPUT: Provide measured pIC50 on Exportin-1 (Homo sapiens, UniProt O14980) for CC(C)Oc1cc(-c2ncn(/C=C\C#N)n2)cc(C(F)(F)F)c1 please.
OUTPUT: ≥ 6.00
